study target: RAR-γ (Mus musculus, UniProt P18911)
Sequence (P18911 whole entry): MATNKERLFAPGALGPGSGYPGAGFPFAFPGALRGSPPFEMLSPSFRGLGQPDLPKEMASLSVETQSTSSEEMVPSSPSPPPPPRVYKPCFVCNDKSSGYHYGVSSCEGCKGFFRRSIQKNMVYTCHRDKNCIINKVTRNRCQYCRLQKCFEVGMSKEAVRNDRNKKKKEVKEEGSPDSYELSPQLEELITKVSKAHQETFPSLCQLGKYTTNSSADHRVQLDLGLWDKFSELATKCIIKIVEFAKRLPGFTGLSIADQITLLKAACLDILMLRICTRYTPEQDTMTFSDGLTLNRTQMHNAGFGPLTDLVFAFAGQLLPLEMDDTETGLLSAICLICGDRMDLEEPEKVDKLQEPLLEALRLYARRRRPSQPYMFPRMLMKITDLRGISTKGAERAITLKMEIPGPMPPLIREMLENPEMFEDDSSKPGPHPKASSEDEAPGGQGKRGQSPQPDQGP
Kindly state pIC50 for each of the entries shown.
One number for each entry, as −log10 of the molar value.

CC1=C(/C=C/C(C)=C/C=C/C(C)=C/CO)C(C)(C)CCC1O (centres unmarked)	5.47

Then there is this compound:
Note pIC50 for the compound shown: CC1=C(/C=C/C(C)=C/C=C/C(C)=C/CO)C(C)(C)CCC1=O [4-oxo-retinol, all-trans-4-oxo-retinol]
5.49

###

test protocol: Metabolism / half-life of retinoids in F9 cells
Assay type: in vitro ADME, mouse
study conditions: mouse; 50 nM; F9 stem or differentiating cells; FIG. 5
readout kind: half-life at 0.05 µM

Please list half-life at 0.05 µM recorded for the compound CC1=C(/C=C/C(C)=C/C=C/C(C)=C/CO)C(C)(C)CCC1=O [4-oxo-retinol, all-trans-4-oxo-retinol]
> 15 h
